# inhibition at 1 µM annotations
tested-system: protein farnesyltransferase (Rattus norvegicus, UniProt Q02293+Q04631)
Construct: Rat brain protein farnesyltransferase activity is measured; from tissue; host or cells: rat brain; purified according to Reiss et al., Cell 62:81-88 (1990), steps one through three
method-description: in vitro inhibition of protein farnesyltransferase (scintillation proximity assay, biotin-K Ras B fragment)
Type: biochemical
measurement-conditions: at 1 × 10^-6 M; read-out: % inhibition of farnesyltransferase
Structures can show the parent of a compound that is named as a salt.
Use % as the unit, but write only the number.

Ask: Fill in: inhibition at 1 µM of CSCCC(NC(=O)c1ccc(NC(=O)C2CCCNC2)cc1-c1ccccc1)C(=O)O (stereo not drawn) [Example 231, hydrochloride] is ___
Result: 50

Ask: inhibition at 1 µM lookup needed for CSCC[C@H](NC(=O)c1ccc(CN[C@@H](/C=C\CC(C)C)CC2CCCCC2)cc1-c1ccccc1)C(=O)O , thanks.
Result: 55

Ask: What does the record list as inhibition at 1 µM for CSCC[C@H](NC(=O)c1ccc(CN(Cc2ccc(C(F)(F)F)cc2)c2ccccc2)cc1-c1ccccc1C)C(=O)O [Example 782, lithium salt] ?
Result: 96

Ask: Looking for the measured inhibition at 1 µM of CSCC[C@H](NC(=O)c1ccc(CNCc2ccccc2)cc1-c1ccccc1)C(=O)O [Example 936, hydrochloride salt] , can you help?
Result: 69

Ask: Item under review: CSCC[C@H](NC(=O)c1ccc(NCC2CNCCN2)cc1-c1ccccc1)C(=O)O (stereo partly drawn) . Reported inhibition at 1 µM?
Result: 84

Ask: # lookup: inhibition at 1 µM of CSCCC(NC(=O)c1ccc(NC(=O)c2cncnc2)cc1-c1ccccc1)C(=O)O (stereo not drawn)
Result: 56
